Entry source: ChEMBL document CHEMBL1134144

biological target: Growth factor receptor-bound protein 2 (Homo sapiens)
Sequence (P62993 whole entry): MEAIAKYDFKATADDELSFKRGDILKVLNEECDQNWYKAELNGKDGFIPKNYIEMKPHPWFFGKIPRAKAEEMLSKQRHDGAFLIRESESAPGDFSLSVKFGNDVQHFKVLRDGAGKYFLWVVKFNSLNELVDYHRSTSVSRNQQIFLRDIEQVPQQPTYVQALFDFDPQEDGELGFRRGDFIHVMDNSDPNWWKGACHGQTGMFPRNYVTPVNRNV
pIC50: −log10 of the molar value.
MEASURED_QUANTITY: pIC50

In [3]: df
Out[3]:
                              smiles_record  measured_quantity  observed_value
0  NC(=O)C[C@@H]1NC(=O)C2(CCCCC2)NC(=O)C[C@@H](c2ccc(CP(=O)(O)O)cc2)/C=C/C[C@@H](Cc2cccc3ccccc23)CNC1=O              pIC50            7.70
